Each recorded value in this set is attributed to ChEMBL document CHEMBL5505980.

# test_method_notes: Apparent permeability across basolateral side to apical in MDCKII-MDR1 cells at 10 uM by LC-MS/MS analysis
# Assay type: ADME, cell-based, Canis lupus familiaris
# conditions: dog, MDCK-MDR1
readout_label: Papp B→A at 10 µM (×10⁻⁶ cm/s)

1. O=C(Nc1cc(O)ccc1O)c1cc(-c2ccc(C(F)(F)F)cc2)n[nH]1
2. O=C(Nc1cc(O)ccc1O)c1cc(-c2ccc(Br)cc2)n[nH]1
3. Cc1ccc(-c2cc(C(=O)Nc3cc(O)ccc3O)[nH]n2)cc1
4. O=C(Nc1ccc(O)c(O)c1)c1cc(-c2ccc(C(F)(F)F)cc2)n[nH]1
**Query** Order each entry by recorded Papp B→A at 10 µM, climbing from the minimum. Your task in answering is to list the labels in the requested order.
**Result** 4, 3, 2, 1
(4: 1.86 ×10⁻⁶ cm/s, 3: 6.65 ×10⁻⁶ cm/s, 2: 12 ×10⁻⁶ cm/s, 1: 19.3 ×10⁻⁶ cm/s)
